Tested on: Calf thymus DNA
PROTOCOL SUMMARY: Binding affinity to calf thymus DNA assessed as change in melting temperature at drug/ base pair ratio of 0.25 by spectrophotometry
Type: nucleic-acid assay
CONDITION SET: Bos taurus
ASSAY READOUT: ΔTm (°C)
Write the number in °C without appending the unit.

Some solved entries appear below for comparison.
[[record]]
structure_smiles = "CC(C)NC(=N)c1ccc(/N=C2\\c3ccccc3CN2c2ccc(C(=N)NC(C)C)cc2)cc1.Cl"
val = 6.3

[[record]]
structure_smiles = "Cl.N=C(N)c1ccc(/N=C2\\c3ccccc3CN2c2ccc(C(=N)N)nc2)cn1"
val = 8.8

[[record]]
structure_smiles = "Cl.c1ccc2c(c1)CN(c1ccc(C3=NCCN3)nc1)/C2=N/c1ccc(C2=NCCN2)nc1"
val = 12.2


stdin: Consider the compound Cl.c1ccc2c(c1)CN(c1ccc(C3=NCCN3)cc1)/C2=N/c1ccc(C2=NCCN2)cc1 and give its measured ΔTm.
stdout: 16

---

System: Calf thymus DNA
PROTOCOL SUMMARY: Binding affinity to calf thymus DNA at 50 uM circular dichroism spectroscopy
Type: nucleic-acid assay
CONDITION SET: Bos taurus
Calls of active or inactive are those of the source. No cut-off for these calls is given here.
Reply using exactly one outcome from active, inactive

stdin: Recorded test call requested for CC(C)NC(=N)c1ccc(/N=C2\c3ccccc3CN2c2ccc(C(=N)NC(C)C)cc2)cc1.Cl
stdout: active

---

System: HepG2
PROTOCOL SUMMARY: Antiproliferative activity against human HepG2 cells assessed as inhibition of cell proliferation after 72 hrs by MTT assay
Format: functional, cell-based
CONDITION SET: HepG2, 72 h
ASSAY READOUT: pIC50
pIC50 is defined as minus the log10 of a concentration measured in mol/L.

[[record]]
structure_smiles = "CC(C)NC(=N)c1ccc(/N=C2\\c3ccccc3CN2c2ccc(C(=N)NC(C)C)cc2)cc1.Cl"
assay_system = "HepG2"
val = 4.21

[[record]]
structure_smiles = "CC(=O)Nc1ccc(/N=C2\\c3ccccc3CN2c2ccc(NC(C)=O)cc2)cc1"
assay_system = "HepG2"
val = 4.15

[[record]]
structure_smiles = "Cl.N=C(N)c1ccc(N2Cc3ccccc3C2=O)nc1"
assay_system = "HepG2"
val = 4.39


stdin: Data request, read-out pIC50, for N#Cc1ccc(/N=C2\c3ccccc3CN2c2ccc(C#N)nc2)cn1
stdout: 5.26

stdin: Looking for the measured pIC50 of CN(C)c1ccc(/N=C2\c3ccccc3CN2c2ccc(N(C)C)cc2)cc1 , can you help?
stdout: 4.08

stdin: # input molecule: N#Cc1ccc(/N=C2\c3ccccc3CN2c2ccc(C#N)cn2)nc1 ; wanted: its pIC50
stdout: 5.03

stdin: Please report the recorded pIC50 for N#Cc1ccc(/N=C2\c3ccccc3CN2c2ccc(C#N)cc2)cc1 .
stdout: 5.33

---

Test system: Nucleic Acid
PROTOCOL SUMMARY: Induction of DNA intercalation in supercoiled pUC19 DNA in presence of human topoisomerase 1 assessed as effect on topoisomerase 1-mediated DNA relaxation at 5 to 50 uM by agarose gel electrophoresis
Assay type: nucleic-acid assay
CONDITION SET: Escherichia coli
The source made the active and inactive calls. The rule behind the calls is not given here.
The categories you may choose from are Yes = active, No = inactive

[[record]]
structure_smiles = "Cl.c1ccc2c(c1)CN(c1ccc(C3=NCCN3)nc1)/C2=N/c1ccc(C2=NCCN2)nc1"
assay_system = "Nucleic Acid"
classification = "Yes"

[[record]]
structure_smiles = "Cl.c1ccc2c(c1)CN(c1ccc(C3=NCCN3)cc1)/C2=N/c1ccc(C2=NCCN2)cc1"
assay_system = "Nucleic Acid"
classification = "Yes"

[[record]]
structure_smiles = "O=[N+]([O-])c1ccc(/N=C2\\c3ccccc3CN2c2ccc([N+](=O)[O-])cc2)cc1"
assay_system = "Nucleic Acid"
classification = "No"

[[record]]
structure_smiles = "Cl.N=C(N)c1ccc(/N=C2\\c3ccccc3CN2c2ccc(C(=N)N)nc2)cn1"
assay_system = "Nucleic Acid"
classification = "Yes"

[[record]]
structure_smiles = "CC(=O)Nc1ccc(/N=C2\\c3ccccc3CN2c2ccc(NC(C)=O)nc2)cn1"
assay_system = "Nucleic Acid"
classification = "No"


Please look at the following molecule next.
stdin: Record request — test call for Nc1ccc(/N=C2\c3ccccc3CN2c2ccc(N)cc2)cc1
stdout: No

---

System: BJ
PROTOCOL SUMMARY: Antiproliferative activity against human BJ cells assessed as inhibition of cell proliferation after 72 hrs by MTT assay
Assay type: cell-based
CONDITION SET: bj
ASSAY READOUT: IC50 (µM)
Kindly answer with a numeric value in µM, unit omitted.

stdin: Could you tell me which IC50 is on file for Cl.Nc1ccc(/N=C2\c3ccccc3CN2c2ccc(N)cc2)cc1 ?
stdout: 80.5

---

System: Calf thymus DNA
PROTOCOL SUMMARY: Binding affinity to calf thymus DNA assessed as change in melting temperature at drug/ base pair ratio of 0.5 by spectrophotometry
Type: nucleic-acid assay
CONDITION SET: Bos taurus
Recorded ΔTm, one value per entry.
Numeric answer only, unit °C assumed.

# count of solved cases: 4
[[record]]
structure_smiles = "CC(C)NC(=N)c1ccc(/N=C2\\c3ccccc3CN2c2ccc(C(=N)NC(C)C)cc2)cc1.Cl"
val = 11.3

[[record]]
structure_smiles = "Cl.N=C(N)c1ccc(/N=C2\\c3ccccc3CN2c2ccc(C(=N)N)nc2)cn1"
val = 14.6

[[record]]
structure_smiles = "Nc1ccc(/N=C2\\c3ccccc3CN2c2ccc(N)cc2)cc1"
val = 0

[[record]]
structure_smiles = "Cc1ccnc(/N=C2\\c3ccccc3CN2c2cc(C)ccn2)c1"
val = 0


stdin: Recorded ΔTm for Cl.c1ccc2c(c1)CN(c1ccc(C3=NCCN3)nc1)/C2=N/c1ccc(C2=NCCN2)nc1 , please?
stdout: 17.3

stdin: Query (compound): CC(=O)Nc1ccc(/N=C2\c3ccccc3CN2c2ccc(NC(C)=O)nc2)cn1 ; field requested: ΔTm
stdout: 0

stdin: Name the reported ΔTm value associated with the compound Cl.c1ccc2c(c1)CN(c1ccc(C3=NCCN3)cc1)/C2=N/c1ccc(C2=NCCN2)cc1
stdout: 19.6

stdin: Using the record for CC(C)NC(=N)c1ccc(/N=C2\c3ccccc3CN2c2ccc(C(=N)NC(C)C)cn2)nc1.Cl , report its ΔTm.
stdout: 4.4

---

Tested on: HepG2
PROTOCOL SUMMARY: Antiproliferative activity against human HepG2 cells assessed as inhibition of cell proliferation after 72 hrs by MTT assay
Assay type: functional, cell-based
CONDITION SET: HepG2, 72 h
I'd appreciate it if you marked entries Condition met when IC50 is lower than 50 µM and Condition not met when it is not.

Check out these entries, answers already filled in.
[[record]]
structure_smiles = "CC(=O)Nc1ccc(/N=C2\\c3ccccc3CN2c2ccc(NC(C)=O)nc2)cn1"
classification = "Condition met"

[[record]]
structure_smiles = "Cc1ccnc(/N=C2\\c3ccccc3CN2c2cc(C)ccn2)c1"
classification = "Condition met"

[[record]]
structure_smiles = "Cl.N=C(N)c1ccc(/N=C2\\c3ccccc3CN2c2ccc(C(=N)N)nc2)cn1"
classification = "Condition met"

[[record]]
structure_smiles = "O=[N+]([O-])c1ccc(/N=C2\\c3ccccc3CN2c2ccc([N+](=O)[O-])cc2)cc1"
classification = "Condition met"

[[record]]
structure_smiles = "Nc1ccc(/N=C2\\c3ccccc3CN2c2ccc(N)nc2)cn1"
classification = "Condition not met"

[[record]]
structure_smiles = "Cl.c1ccc2c(c1)CN(c1ccc(C3=NCCN3)cc1)/C2=N/c1ccc(C2=NCCN2)cc1"
classification = "Condition not met"

[[record]]
structure_smiles = "CC(C)NC(=N)c1ccc(/N=C2\\c3ccccc3CN2c2ccc(C(=N)NC(C)C)cn2)nc1.Cl"
classification = "Condition not met"

[[record]]
structure_smiles = "Nc1ccc(/N=C2\\c3ccccc3CN2c2ccc(N)cc2)cc1"
classification = "Condition not met"


stdin: Dear reviewer, please state whether Cl.c1ccc2c(c1)CN(c1ccc(C3=NCCN3)nc1)/C2=N/c1ccc(C2=NCCN2)nc1 has IC50 strictly beneath 50 µM.
stdout: Condition met

---

Test system: Calf thymus DNA
PROTOCOL SUMMARY: Binding affinity to calf thymus DNA at 50 uM circular dichroism spectroscopy
Assay type: nucleic-acid assay
CONDITION SET: Bos taurus
Active and inactive are the calls of the source. The rule behind the calls is not given here.
Choose the fitting class; nothing outside 1 = active, 0 = inactive is accepted.

[[record]]
structure_smiles = "Cl.c1ccc2c(c1)CN(c1ccc(C3=NCCN3)cc1)/C2=N/c1ccc(C2=NCCN2)cc1"
assay_system = "Calf thymus DNA"
classification = 1


stdin: Recorded test call requested for Cl.N=C(N)c1ccc(/N=C2\c3ccccc3CN2c2ccc(C(=N)N)nc2)cn1
stdout: 1

stdin: Fill in: this test's call for Cl.c1ccc2c(c1)CN(c1ccc(C3=NCCN3)nc1)/C2=N/c1ccc(C2=NCCN2)nc1 is ___
stdout: 1

stdin: Query: recorded result category for CC(C)NC(=N)c1ccc(/N=C2\c3ccccc3CN2c2ccc(C(=N)NC(C)C)cn2)nc1.Cl in this test
stdout: 0
